The measurements presented in this section are drawn from ChEMBL document CHEMBL1155783.

System under test: Cannabinoid receptor 1 (Homo sapiens, UniProt P21554)
Sequence (P21554 whole entry): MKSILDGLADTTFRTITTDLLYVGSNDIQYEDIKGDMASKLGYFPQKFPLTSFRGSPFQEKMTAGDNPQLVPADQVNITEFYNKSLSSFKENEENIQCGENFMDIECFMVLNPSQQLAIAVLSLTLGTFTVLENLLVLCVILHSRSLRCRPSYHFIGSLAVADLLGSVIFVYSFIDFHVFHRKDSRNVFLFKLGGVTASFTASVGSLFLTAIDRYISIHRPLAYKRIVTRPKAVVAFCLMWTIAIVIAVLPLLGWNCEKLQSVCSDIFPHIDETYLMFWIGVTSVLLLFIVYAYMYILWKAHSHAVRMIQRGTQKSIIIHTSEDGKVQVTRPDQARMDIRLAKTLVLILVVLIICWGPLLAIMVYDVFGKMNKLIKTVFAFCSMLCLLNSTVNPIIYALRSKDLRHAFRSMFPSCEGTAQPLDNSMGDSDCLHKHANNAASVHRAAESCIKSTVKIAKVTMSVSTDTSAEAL
Assignment: determine reported pKi for the given molecules.
When answering, recall that pKi equals minus log10 of the concentration in mol/L, and write that number alone.

## Input Record request: pKi value, item O=C(NCCCc1ccccc1)C(c1ccccc1)c1ccc(Cl)cc1 (stereo unspecified)
## Output 5.66

## Input Follow-up entry: Cc1ccc(C(C(=O)NCCC(c2ccccc2)c2ccccc2)c2ccccc2)cc1 (stereo unspecified)
## Output 6.25

## Input Follow-up entry: O=C(NCCCc1ccccc1)C(c1ccccc1)c1ccccc1
## Output 5.47

## Input Follow-up entry: O=C(NCCC(c1ccccc1)c1ccccc1)C(c1ccccc1)c1ccc(Cl)cc1 (stereo unspecified)
## Output 6.25

## Input Follow-up entry: O=C(NCCC(c1ccccc1)c1ccccc1)C(c1ccccc1)c1ccc([N+](=O)[O-])cc1 (stereo unspecified)
## Output 6.25

## Input Follow-up entry: O=C(Cc1ccccc1)NCCC(c1ccccc1)c1ccccc1
## Output 6.25
